For each record, write down the corresponding Her2 level.
molecular target: Receptor tyrosine-protein kinase erbB-2 (Homo sapiens); experiment: reducers of endogenous Her2 protein level, primary screen, SKBR3 breast tumor cells, AlphaScreen, ATP viability (AID 461); conditions: 18-24 h, at 10 µM, stronger effect = lower value;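 for Her2 level: lower value means less Her2 protein in the cells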;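 for viability: percent of carrier control wells set as 100% viability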
Report the value in % with no unit label.

Name the recorded Her2 level for "Cc1occc1-c1nnc(SCC(=O)c2ccc(F)cc2)n1Cc1ccco1" .
82

"COc1ccc2c(C(=O)CN(C)C3CCCCC3)c[nH]c2c1" ?
72.5

Now this one: "c1ccc(CN2C3=NCCCN3c3ccccc32)cc1"
84

Note, next up: "CCOCCCNC(=O)CCNS(=O)(=O)c1ccc(C)cc1"
108

Then what about the molecule CC(C)(Oc1ccc(Cl)cc1)C(=O)NC1CCSC1=O (stereo unspecified) ?
104

Could you do the same for "CCOC(=O)c1c(-c2cccs2)csc1NC(=O)CCCC(=O)O" , please?
87

Same thing, different molecule: "CC1CCN(S(=O)(=O)c2ccc(S(=O)(=O)NCC(=O)C(C)(C)C)cc2)CC1"
97

What do you have for "C=CCc1c(C)nc(SC)nc1Nc1ccc(C(=O)O)cc1" ?
74.5

Try this molecule next: COc1ccc2nc(NC(=O)C3CCCN(S(=O)(=O)c4cccc5nsnc45)C3)sc2c1 (stereo unspecified)
97.5

Next record, please: "CCOc1ccc2nc(SCC(=O)N3CCCCCC3)c(C#N)cc2c1"
82.5

Again, but for "Cc1ccc(NC(=O)N2CCC(c3nc4c(nnn4Cc4cccc(Cl)c4)c(=O)[nH]3)CC2)cc1"
76.5

====

target: Receptor tyrosine-protein kinase erbB-2 (Homo sapiens) (UniProt P04626); experiment: reducers of endogenous Her2 protein level, primary screen, SKBR3 breast tumor cells, AlphaScreen, ATP viability (AID 461); conditions: 18-24 h, at 10 µM, stronger effect = lower value;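 for Her2 level: lower value means less Her2 protein in the cells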;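 for viability: percent of carrier control wells set as 100% viability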
Sequence (P04626 whole entry, looked up): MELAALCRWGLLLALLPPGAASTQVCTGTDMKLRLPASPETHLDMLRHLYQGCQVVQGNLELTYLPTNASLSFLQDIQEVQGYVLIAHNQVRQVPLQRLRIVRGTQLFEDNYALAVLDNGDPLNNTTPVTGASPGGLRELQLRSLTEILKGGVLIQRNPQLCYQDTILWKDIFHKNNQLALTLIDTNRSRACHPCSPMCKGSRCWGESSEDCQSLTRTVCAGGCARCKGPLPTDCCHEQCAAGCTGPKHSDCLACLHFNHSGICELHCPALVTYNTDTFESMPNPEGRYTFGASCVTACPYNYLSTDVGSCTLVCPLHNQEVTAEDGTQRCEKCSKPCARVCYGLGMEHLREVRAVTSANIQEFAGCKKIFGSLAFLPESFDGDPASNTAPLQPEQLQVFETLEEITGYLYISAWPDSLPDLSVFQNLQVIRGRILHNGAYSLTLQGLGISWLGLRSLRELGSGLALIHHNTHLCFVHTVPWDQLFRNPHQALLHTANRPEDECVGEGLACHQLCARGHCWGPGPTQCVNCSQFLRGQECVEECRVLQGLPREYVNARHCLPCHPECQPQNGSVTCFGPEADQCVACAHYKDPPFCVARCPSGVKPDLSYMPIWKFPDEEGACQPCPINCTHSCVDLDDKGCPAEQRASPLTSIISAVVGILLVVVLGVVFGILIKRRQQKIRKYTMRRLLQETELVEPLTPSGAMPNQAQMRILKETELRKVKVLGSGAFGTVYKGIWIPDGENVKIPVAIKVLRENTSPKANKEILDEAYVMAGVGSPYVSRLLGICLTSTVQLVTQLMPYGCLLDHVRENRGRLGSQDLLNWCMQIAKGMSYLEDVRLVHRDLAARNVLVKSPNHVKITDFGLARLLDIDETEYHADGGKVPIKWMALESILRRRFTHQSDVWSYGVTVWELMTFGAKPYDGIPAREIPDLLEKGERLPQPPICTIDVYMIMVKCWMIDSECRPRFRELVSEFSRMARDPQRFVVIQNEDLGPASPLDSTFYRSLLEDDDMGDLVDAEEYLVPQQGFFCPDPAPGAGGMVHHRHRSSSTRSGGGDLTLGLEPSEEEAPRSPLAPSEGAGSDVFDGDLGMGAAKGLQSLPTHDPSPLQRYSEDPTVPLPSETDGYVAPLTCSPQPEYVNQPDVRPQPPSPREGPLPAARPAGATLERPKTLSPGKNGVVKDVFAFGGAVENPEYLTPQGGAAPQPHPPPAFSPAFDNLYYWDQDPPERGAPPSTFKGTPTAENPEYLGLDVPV
Answer each item with its documented Her2 level.
Response body: numeric value in %, unit text excluded.

Find the recorded Her2 level belonging to "Cc1ccc(-c2ccc(=O)n(CCC(=O)NCc3ccccn3)n2)cc1" and report it.
84

Likewise for COc1ccccc1CN1CC(C(=O)N2CCN(c3ccc(F)cc3)CC2)CC1=O (configuration not stated) ?
86

Next: "CCC(=O)Nc1ccc(F)c(Cl)c1"
99

And the next one, "Cc1ccc(S(=O)(=O)Nc2nc3ccccc3nc2NCc2ccco2)cc1" ?
93.5

Another compound: COc1ccc(C2=NOC(C(=O)NCc3ccc(F)cc3)C2)cc1OC (configuration not stated)
87.5

Same lookup for "O=C(NC1CCCCC1)n1c(=O)oc2ccc(Cl)cc21" , please.
92

Moving on to the next compound: "COCCN1Cc2cccc(C(=O)Nc3cccnc3)c2C1=O"
81

Also, "CCOC(=O)CSc1cn2c(n1)CCC2" please.
103

Next compound up: "Cc1cc(NC(=O)COC(=O)c2cccc(S(=O)(=O)N3CCOCC3)c2)no1"
88

Now the compound Cc1cc(C)c(C)c(OCC(=O)NCC2CCCO2)c1 (configuration not stated)
85.5

Likewise for O=C(c1ccc(Cl)cc1)N(Cc1cccs1)C1CCS(=O)(=O)C1 (configuration not stated) ?
138

And then CC1=CC=CC2=NC(=O)CC(C)(C(=O)N(CC(=O)NC(C)C)C3CCCC3)N12 (configuration not stated) , what is it?
100

Then "O=C(Cc1cccs1)Nc1ccccc1C(=O)O" ?
96.5

Same question, "Cc1c(Cl)cccc1N1C(=O)c2ccccc2C1=O" this time
85.5

Field entry: "COc1ccc(C)cc1NC(=O)CSc1nnnn1Cc1ccccc1"
96.5

And for "O=C(N1CCCCCC1)N1CCN(S(=O)(=O)N2CCCCC2)CC1" ?
91.5

Subsequent entry: CCOC(=O)C1=C(c2ccccc2)Nc2nc(C)nn2C1c1cccc(OC)c1OC (configuration not stated)
130

Cool, now "COc1ccccc1C(=O)Nc1ccc(S(=O)(=O)N2CCOCC2)cc1"
104

Would you kindly repeat that for "Cn1c(=O)[nH]c(=O)c2c1nc(N(CCO)Cc1ccccc1)n2Cc1ccccc1Cl" ?
82.5

Same again, this time with "Cc1cnc(SCCc2ccncc2)nc1C"
109

Next: "CCn1cc(S(=O)(=O)CC(=O)Nc2ccc(OC)cc2)c2ccccc21"
88

Similarly, "Cc1nc2ccc(N3C(=O)CCC3=O)cc2[nH]1" ?
101

Further, for "Cc1[nH]c(=O)[nH]c(=O)c1S(=O)(=O)N(C)Cc1ccccc1" ?
106

Lookup "CCOC(=O)c1[nH]c(C)c(C(=O)N(C)C)c1C"
88.5

Same again, this time with "COc1cc(C)nc(OCCNC(=O)COc2ccc(Cl)cc2C)n1"
100

Same thing, different compound: "CCOC(=O)c1sc2ncn(/N=C/N(C)C)c(=O)c2c1C"
97.5

Next record, please: "C=CCSc1nc(N)c(C(=O)Nc2ccccc2C)cc1C(N)=O"
121

// query: C#CCN1C(=O)C(O)(CC(=O)c2cccc(OC)c2)c2ccccc21 (configuration not stated)
84

Likewise for COC(=O)c1sc(N2C(=O)C(O)=C(C(=O)c3ccc(C)o3)C2c2ccc(F)cc2)nc1C (configuration not stated) ?
81.5

Repeat with "CCOC(=O)N1CCN(C(=O)c2n[nH]c(=O)c3ccccc23)CC1"
101

Further, for "CN(Cc1cccs1)C(=O)CCc1ccc(S(=O)(=O)N2CCOCC2)cc1" ?
116

Lookup "CSc1nc(N2CCOCC2)c2ccccc2n1"
100

Now this one: O=C(O)c1cccc(CN2C(=O)SC(Nc3ccccc3)C2=O)c1 (configuration not stated)
89

Again, but for Cc1ccccc1OCCN1C(=O)NC2(CCc3ccccc32)C1=O (configuration not stated)
83.5

And "CCc1ccccc1-n1c(SCC(=O)N2CCCC2)nnc1-c1ccccn1" ?
99.5

// repeat for Cc1ccc(C(c2sc3nc(C)nn3c2O)N2CC(C)OC(C)C2)cc1 (configuration not stated) and report
93

Same thing, different compound: "CC(C)Cn1c(CN(Cc2ccccc2)Cc2ccccc2)nc2c1c(=O)n(C)c(=O)n2C"
86.5

Also "CCn1c(NCc2ccc(N(C)C)cc2)nc2ccccc21" , if possible.
87.5

Now consider O=C1OCc2cc(NC(=O)C3CCCO3)ccc21 (configuration not stated) and answer again.
122

"C=CCn1c(-c2cccs2)nc2nc3ccccc3nc21" ?
106

Same question for CCOc1ccccc1N(C(=O)Cn1nnnc1-c1ccc(C)o1)C(CC)C(=O)NC(C)(C)C (configuration not stated) please.
105

Then what about the compound "COCCNC(=O)c1c(N)n(CCC2=CCCCC2)c2nc3ccccc3nc12" ?
92

Here is the next compound: "COc1cccc(NC(=O)N2CCN(c3cccc(C)c3C)CC2)c1"
72.5

Let us now turn to "CCn1c(=O)cc(SCC(=O)Nc2cccnc2)c2ccccc21"
89.5

Another compound: "COc1ccccc1OCCCCNCCO"
116

Now give it for "Cc1ccccc1NC(=O)c1c(F)c(F)c(F)c(F)c1F" too.
98

Try "CCc1cccc(NS(=O)(=O)c2c(C)n[nH]c2C)c1" next.
96

====

experiment: reducers of endogenous Her2 protein level, primary screen, SKBR3 breast tumor cells, AlphaScreen, ATP viability (AID 461); details: 18-24 h, measured here: SKBR3 viability, ATP luminescence, at 10 µM;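 for viability: percent of carrier control wells set as 100% viability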
For each of the molecules below, state its viability.
Express the result in % but write the number alone.

Consider the molecule "CCn1c(=O)cc(SCC(=O)N2CCOCC2)c2ccccc21" and give its measured viability.
92

Next molecule up: C/C(=N\O)C(C)/[N+]([O-])=C/c1nc(C)c(C)n1O (centres undefined)
95.5

// same read-out, input: "Cc1nc2ccccc2cc1C(=O)NCc1ccco1"
130

Another molecule: "Cc1cc(NC(=O)CSc2ccc3nnc(-c4cccc(F)c4)n3n2)no1"
108

Now try CC1(C(=O)CSc2nc3ccccc3s2)CCC(=O)O1 (centres undefined) .
107

# iterate: "O=C(c1ccccc1)c1ccc2nc[nH]c2c1"
96.5

"O=C(CCc1nc2ccccc2s1)OCC(=O)N1CCN(C(=O)c2ccco2)CC1" ?
117

Entry O=C1NC(c2ccco2)Nc2ccccc21 (centres undefined) please
82.5

Further, for CCCN1C2CCCC1CC(NC(=O)Nc1cccc(C(C)=O)c1)C2 (centres undefined) ?
105

Next entry: "COc1ccc(NC(=O)CN(c2ccc(C)cc2)S(C)(=O)=O)c(OC)c1"
90

Here is the next molecule: "CCCCN(CC)S(=O)(=O)c1ccc2c(c1)CCCN2C(C)=O"
88

Record: "CSc1ccc(S(=O)(=O)Nc2cccc(F)c2)cc1"
96

Try this molecule next: N#CC1=C(N)OC(c2ccccc2)=C(C#N)C1c1ccc2c(c1)OCO2 (centres undefined)
95

Input "Cc1cc(=O)n2[nH]c(COc3ccccc3)nc2n1"
101

What do you get for "O=C(CSc1nnc(-c2c[nH]c3ccccc23)o1)N(Cc1ccccc1)c1ccc(F)cc1" ?
100

Would you mind doing "C#CCSc1nnc(-c2ccccc2)c(=O)[nH]1" as well?
92.5

Also Cc1cc2cc(CN(CC3CCCO3)C(=O)c3cnccn3)c(=O)[nH]c2cc1C (centres undefined) ?
75

Please answer likewise for "O=C(CNC(=O)c1ccccc1C(=O)O)c1ccccc1"
128

Subsequent entry: "O=C(Nc1ccncc1)c1cncc(Br)c1"
78

Further, for "CC(C)(C)n1nnnc1CN1CCC(NC(=O)NC2CCCCC2)CC1" ?
95

And the next one, "Cc1cc2ncc(C(=O)Nc3ccccc3)c(C)n2n1" ?
94

Quick one: "CCCOc1ccc(-c2nnn(CC(=O)Nc3cccc(C(=O)OC)c3)n2)cc1"
100

Would you kindly repeat that for "O=C(Nc1cccc(Cl)c1)N1CCN(c2ncccn2)CC1" ?
100

Now try "COc1ccc(CCNC(=O)c2cnc3scc(C)n3c2=O)cc1OC" .
78
